Cited source for all entries: paper PMC11062922

Items are presented alongside their recorded potency estimated from few doses.
- Test system: MAPK10
- Set-up: species or system human, MV4-11 + K-562 + COLO205 + SK-N-BE2 + OVCAR-8
- Cond: read-out: apparent Kd; compound concentrations:100 nM and 1000 nM (sheet 'Samples'); n = 1
Readout: potency estimated from few doses (nM)

Cl.Cn1c(=O)c(Oc2ccccc2)cc2cnc(NC3CCOCC3)nc21 [RO3304757-001] :: 984
COc1ccc2[nH]c3c4[nH]c5ccc(OC)cc5c4c4c(c3c2c1)C(=O)NC4=O [GW296115X] :: 1050
CN(C)CCOc1ccc(-c2cc(-c3c[nH]nc3-c3ccccn3)ccn2)cc1 [GW835314X] :: 1410
CC(C)N1CCC(n2cnc(-c3ccc(F)cc3)c2-c2ccnc(N)n2)CC1 [SB-223132] :: 1330
Cl.Cn1c(=O)c(Cc2ccc(F)cc2F)cc2cnc(NC3CCOCC3)nc21 [RO3308757-001] :: 886
O=c1[nH]c2nc(NC3CCOCC3)ncc2cc1Oc1ccc(F)cc1F [RO3310867-000] :: 150
CNC(=O)c1ccccc1Nc1nc(Nc2ccc(N3CCOCC3)cc2)ncc1Cl.Cl [GSK1576028A] :: 60.1
CCn1c(=O)c(Oc2ccc(F)cc2F)cc2cnc(NC3CCOCC3)nc21 [RO4367438-000] :: 45.1

* * *

Items are presented alongside their recorded potency estimated from few doses.
- Test system: GSK3B
- Design: species or system human, MV4-11 + K-562 + COLO205 + SK-N-BE2 + OVCAR-8
- Cond: read-out: apparent Kd; compound concentrations:100 nM and 1000 nM (sheet 'Samples'); n = 1
Readout: potency estimated from few doses

CCN1CCN(CCCC(=O)Nc2n[nH]c3nc(-c4ccc(O)cc4)c(Br)cc23)CC1 :: 20.1 nM
CS(=O)(=O)CCn1c(=O)c(Oc2ccc(F)cc2F)cc2cnc(NC3CCOCC3)nc21 :: 601 nM
O=C1NC(=O)C(N2CCc3ccccc32)=C1c1ccccc1Cl :: 177 nM
CN(C)CCCC(=O)Nc1n[nH]c2nnc(-c3ccccc3)cc12.Cl :: 17.1 nM
COc1cccc(C2=C(Nc3cc(Cl)c(O)c(Cl)c3)C(=O)NC2=O)c1 :: 1090 nM

* * *

- Tested on: PRKG1
- Set-up: species or system human, MV4-11 + K-562 + COLO205 + SK-N-BE2 + OVCAR-8
- Cond: read-out: apparent Kd; compound concentrations:100 nM and 1000 nM (sheet 'Samples'); n = 1
Items are presented alongside their recorded potency estimated from few doses.
Readout: potency estimated from few doses (µM)

CCn1c(-c2nonc2N)nc2cncc(CNC3CCNCC3)c21 [SB-747651A] :: 0.702
CCn1c(-c2nonc2N)nc2c(C#CC(C)(C)O)nc(O[C@@H](CN)c3ccccc3)cc21.O=C(O)C(F)(F)F [GSK1007102B] :: 0.00931
CCn1c(-c2nonc2N)nc2cnc(Oc3cccc(NC(=O)c4ccc(N(C)C)cc4)c3)cc21 [GSK248233A] :: 0.227
CCn1c(-c2nonc2N)nc2cncc(C(=O)N3CC[C@H](N)C3)c21.Cl [SB-772077-B] :: 0.0959

* * *

Items are presented alongside their recorded potency estimated from few doses.
- Tested on: PIK3C3
- Parameters: species or system human, MV4-11 + K-562 + COLO205 + SK-N-BE2 + OVCAR-8
- Cond: read-out: apparent Kd; compound concentrations:100 nM and 1000 nM (sheet 'Samples'); n = 1
Readout: potency estimated from few doses (nM)

CCn1cc(-c2ccnc3[nH]c(-c4cccc(CN(C)C)c4)cc23)c(-c2ccc(NC(=O)N(C)C)cc2)n1 :: 1500
O=C1NC(=O)C(c2ccc(Cl)cc2)=C1Nc1cccc(Cl)c1 :: 1570
CNCc1ccc(-c2cc(-c3nc(-c4ccc(S(=O)(=O)C(C)C)cc4)cnc3N)on2)cc1 :: 500
N#Cc1cccc(Nc2nccc(-c3cnn4ncccc34)n2)c1 [GW778894X] :: 994
NC(=O)c1cccnc1COc1cc(-c2ccc(N3CCOCC3)nc2)cc2ncccc12 :: 1260

* * *

- System: PKN3;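 also: NanoBRET target engagement in HEK293T cells transiently expressing full-length PKN3 with C-terminal NanoLuc, displacement of fluorescent tracer K5 (500 nM), BRET read after 2 h equilibration at 37 °C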
- Cond: read-out: Rep 4; hek293t cells
Readout: IC50 (nM)

Cc1cccc(-c2nc(Nc3ccncc3)c3sccc3n2)n1 [GW869641X] :: 87.1
Cl.NCc1ccc(-c2nc(-c3ccc(Cl)c(O)c3)c(-c3ccncc3)[nH]2)cc1 [SB-476429-A] :: 85.4
COc1cccc2c(-c3ccncc3)c(-c3ccc(F)cc3)nn12 [GW468513X] :: 73.9

* * *

Items are presented alongside their recorded potency estimated from few doses.
- System: ERCC2
- Set-up: species or system human, MV4-11 + K-562 + COLO205 + SK-N-BE2 + OVCAR-8
- Cond: read-out: apparent Kd; compound concentrations:100 nM and 1000 nM (sheet 'Samples'); n = 1
Readout: potency estimated from few doses (µM)

CN1CCC(C(=O)Nc2n[nH]c3nc(-c4ccc(O)cc4)c(Br)cc23)CC1.O=C(O)/C=C\C(=O)O :: 0.985
NS(=O)(=O)c1ccc(N/N=C2\C(=O)Nc3ccc(C(=O)NCc4ccncc4)cc32)cc1 [GSK300657X] :: 2.25
CN(C)C[C@H]1CCn2c(c(C3=C(c4cn(C)c5ccccc45)C(=O)NC3=O)c3ccccc32)C1 :: 0.821
CC(=O)N[C@@H](Cc1ccc(OP(=O)(O)O)cc1)C(=O)N[C@H]1CCC(=O)N2CCC[C@@H](C(=O)NCc3ccc(Cl)cc3)N2C1=O :: 0.0394
O=C(Nc1c(F)cccc1F)c1cc(C(=O)c2ccccc2F)c[nH]1 [GSK1326180A] :: 0.984

* * *

- Tested on: NUAK2
- Parameters: species or system human, MV4-11 + K-562 + COLO205 + SK-N-BE2 + OVCAR-8
- Cond: read-out: apparent Kd; compound concentrations:100 nM and 1000 nM (sheet 'Samples'); n = 1
Decision: potency estimated from few doses >= 600 nM yields Criterion met, all other cases yield Criterion not met.

C[C@@H](Oc1cc(-n2cnc3cc(-c4ccncc4)ccc32)sc1C(N)=O)c1ccccc1Cl [GSK479719A] :: Criterion met
C[C@@H](Oc1cc(-n2cnc3ccc(OCC4CCN(C)CC4)cc32)sc1C(N)=O)c1ccccc1C(F)(F)F [GSK326090A] :: Criterion not met
CN1C[C@@H]2Cn3c(c(C4=C(c5cn(C)c6ccccc56)C(=O)NC4=O)c4ccccc43)C[C@H]2C1.Cl [RO0320234-001] :: Criterion met
Cn1cc(C2=C(c3cn(CCCSC(=N)N)c4ccccc34)C(=O)NC2=O)c2ccccc21 [RO0318220-000] :: Criterion met

* * *

Items are presented alongside their recorded potency estimated from few doses.
- System: MAPK9
- Design: species or system human, MV4-11 + K-562 + COLO205 + SK-N-BE2 + OVCAR-8
- Cond: read-out: apparent Kd; compound concentrations:100 nM and 1000 nM (sheet 'Samples'); n = 1
Readout: potency estimated from few doses (nM)

Cc1ccc(-n2nc(C(C)(C)C)cc2NC(=O)Nc2ccc(OCCN3CCOCC3)c3ccccc23)cc1 [GW839464X] :: 183
CNC(=O)c1ccccc1Nc1nc(Nc2ccc(N3CCOCC3)cc2)ncc1Cl.Cl [GSK1576028A] :: 220
Cl.Cn1c(=O)c(Oc2ccccc2F)cc2cnc(NC3CCOCC3)nc21 :: 484
CCn1c(=O)c(Oc2ccc(F)cc2F)cc2cnc(NC3CCOCC3)nc21 :: 46.5

* * *

- Tested on: CLK4
- Design: species or system human, MV4-11 + K-562 + COLO205 + SK-N-BE2 + OVCAR-8
- Cond: read-out: apparent Kd; compound concentrations:100 nM and 1000 nM (sheet 'Samples'); n = 1
Items are presented alongside their recorded potency estimated from few doses.
Readout: potency estimated from few doses (nM)

CNC(=O)c1c(F)cccc1Nc1nc(Nc2cc3c(cc2OC)CCN3C(=O)CN(C)C)nc2[nH]ccc12 :: 137
COc1cc(N2CCN(C(C)C)CC2)ccc1Nc1nc(Nc2ccc(F)cc2C(=O)NC[C@@H](O)CO)c2cc[nH]c2n1 [GSK1392956A] :: 684
CNc1cc(-c2ccc3c(N)n[nH]c3c2)nc(N)n1 [GSK2224810A] :: 154
O=C(Nc1n[nH]c2nc(-c3ccccc3O)ccc12)C1CC1 :: 1230
CC(C)COC(=O)c1ccc2c(c1)/C(=C/Nc1ccc(S(N)(=O)=O)cc1)C(=O)N2 [GW416981X] :: 1480
COc1ccc2c(-c3ccnc(Nc4cccc(OC(F)(F)F)c4)n3)cnn2n1 [GW810372X] :: 120
Cl.Cl.NCC(C(=O)Nc1cc(Br)c(-c2ccnc3[nH]ccc23)s1)c1ccccc1.NCC(C(=O)Nc1cc(Br)c(-c2ccnc3[nH]ccc23)s1)c1ccccc1 (stereo not shown) [GSK1269851A] :: 1070
Cc1cc(NC(=O)c2cccc(NC(=O)/C=C/CN(C)C)c2)ccc1Nc1nccc(-c2cccnc2)n1 :: 1630
C[C@@H]1CCNC(=O)c2cc3ccc(C(=O)Nc4nc5ccccc5n4CCCN(C)C)cc3n21 :: 931
CC(C)Nc1cc(-c2ccc3c(N)n[nH]c3c2)nc(N)n1 [GSK2221681A] :: 1550
COc1cc(F)c(F)cc1C(=O)c1cnc(NC2CCN(S(C)(=O)=O)CC2)nc1N :: 1430
COc1cc2ncn(-c3cc(OCCCc4ccccc4)c(C(N)=O)s3)c2cc1OC [GSK205189A] :: 1340
CN(C)CC(O)COc1ccc(Nc2nccc(-c3cnn4nc(N5CCOCC5)ccc34)n2)cc1 (stereo not shown) [GW767488X] :: 34.2
